target: Autotaxin (Mus musculus); experiment: Inhibition of ATX in mouse plasma assessed as reduction in LPA prodution at 10 uM after 3 hrs by LC-MS/MS analysis; assay type: cell-free
Activity calls are given as the source filed them. No cut-off for these calls is given here.
Respond with a class label; see active, inactive

>>> label_class("Cc1cc(=O)n2cc(-c3ccc(Cl)cc3)nc2n1CC(=O)OCc1ccccc1")
"inactive"
>>> label_class("CCCCCCCn1c(C)cc(=O)n2cc(-c3ccc(Cl)cc3)nc12")
"active"

Exercise: // param item: Cc1cc(O)n2cc(-c3cccc([N+](=O)[O-])c3)nc2n1 ; yields the recorded call
Solution: inactive

Exercise: Quick one: COC(=O)Cn1c(C)cc(=O)n2cc(-c3ccc(Cl)cc3)nc12
Solution: inactive
